Tested on: 192522-019-R-J2-PDC complex tumor spheroid viability
Experiment: Anticancer human tumor 192522-019-R-J2-PDC patient-derived colon adenocarcinoma cell line growth inhibition [POLQ]
Details: second compound 0.0316 µM; first compound 0.316 µM; stronger effect = lower value
Item-by-item account of viability, T/C

| compound | viability, T/C (%) |
| --- | --- |
| CCc1cc2c(N3CCc4c(cc(Cn5ccnc5)cc4-c4cn(C)nc4C(F)(F)F)C3=O)cc(C)nc2c(OC)n1 + COC1C(OC(N)=O)C(O)C(Oc2ccc3c(O)c(NC(=O)c4ccc(O)c(CC=C(C)C)c4)c(=O)oc3c2C)OC1(C)C | 90.5 |
| O=c1[nH]cc(F)c(=O)[nH]1 + COC1C(OC(N)=O)C(O)C(Oc2ccc3c(O)c(NC(=O)c4ccc(O)c(CC=C(C)C)c4)c(=O)oc3c2C)OC1(C)C | 78.8 |
| C=CCn1c(=O)c2cnc(Nc3ccc(N4CCN(C)CC4)cc3)nc2n1-c1cccc(C(C)(C)O)n1 + Cc1cccc(N(C)C(=O)C2C(O)CCN2c2nc(C)cc(C(F)(F)F)c2C#N)c1 | 92.6 |
| C=CCn1c(=O)c2cnc(Nc3ccc(N4CCN(C)CC4)cc3)nc2n1-c1cccc(C(C)(C)O)n1 + COC1C(OC(N)=O)C(O)C(Oc2ccc3c(O)c(NC(=O)c4ccc(O)c(CC=C(C)C)c4)c(=O)oc3c2C)OC1(C)C | 89.2 |
| C#Cc1c(F)ccc2cc(O)cc(-c3ncc4c(N5CC6CCC(C5)N6)nc(OCC56CCCN5CC(F)C6)nc4c3F)c12 (stereo not given) + COC1C(OC(N)=O)C(O)C(Oc2ccc3c(O)c(NC(=O)c4ccc(O)c(CC=C(C)C)c4)c(=O)oc3c2C)OC1(C)C | 81.6 |

----------
Tested on: 192522-019-R-J2-PDC complex tumor spheroid viability
Assay: Anticancer human tumor 192522-019-R-J2-PDC cell line growth inhibition [POLQ];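 further: spheroids exposed to drugs for seven days before reading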;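 on viability, T/C: 100% = DMSO vehicle control viability in luminescence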
Details: second compound 1 µM; first compound 0.0316 µM; stronger effect = lower value
viability, T/C: recorded values

| compound | viability, T/C |
| --- | --- |
| CC1COCCN1c1cc(C2(O)CC3CCC(C2)O3)c2cnn(-c3ccn[nH]3)c2n1 (centres undefined) + Nc1ccc(C#CCN(C(=O)Cc2ncc(C(F)(F)F)cc2C(F)(F)F)c2ccc(F)cc2)nn1 | 97.1% |
| C=CC(=O)N1CCN(c2nc(=O)n(-c3c(C)ccnc3C(C)C)c3nc(-c4c(O)cccc4F)c(F)cc23)C(C)C1 (centres undefined) + Cc1cccc(N(C)C(=O)C2C(O)CCN2c2nc(C)cc(C(F)(F)F)c2C#N)c1 | 102% |
| O=c1[nH]cc(F)c(=O)[nH]1 + Nc1ccc(C#CCN(C(=O)Cc2ncc(C(F)(F)F)cc2C(F)(F)F)c2ccc(F)cc2)nn1 | 104% |
| COc1ccc([C@@H](O)c2cc(-c3ncnc4cc(N5CCOCC5)ccc34)c(F)cc2Cl)nn1 + Cc1cccc(N(C)C(=O)C2C(O)CCN2c2nc(C)cc(C(F)(F)F)c2C#N)c1 | 98.9% |

----------
System: 192522-019-R-J2-PDC complex tumor spheroid viability
Assay: Anticancer human tumor 192522-019-R-J2-PDC cell line growth inhibition [POLQ];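 further: spheroids exposed to drugs for seven days before reading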
Conditions: curve of first compound; second compound 1 µM
pIC50: −log10 of the molar value.

| molecule | pIC50 |
| --- | --- |
| CCCS(=O)(=O)Nc1ccc(F)c(C(=O)c2c[nH]c3ncc(-c4ccc(Cl)cc4)cc23)c1F + COC1C(OC(N)=O)C(O)C(Oc2ccc3c(O)c(NC(=O)c4ccc(O)c(CC=C(C)C)c4)c(=O)oc3c2C)OC1(C)C | < 5.00 |
| Nc1ccn(C2OC(CO)C(O)C2(F)F)c(=O)n1 (stereo not drawn) + Cc1cccc(N(C)C(=O)C2C(O)CCN2c2nc(C)cc(C(F)(F)F)c2C#N)c1 | < 5.00 |
| Cn1ncnc1[C@H]1c2n[nH]c(=O)c3cc(F)cc(c23)N[C@@H]1c1ccc(F)cc1 + Cc1cccc(N(C)C(=O)C2C(O)CCN2c2nc(C)cc(C(F)(F)F)c2C#N)c1 | < 7.00 |

----------
Test system: 192522-019-R-J2-PDC complex tumor spheroid viability
Test: Anticancer human tumor 192522-019-R-J2-PDC cell line growth inhibition [POLQ];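 further: spheroids exposed to drugs for seven days before reading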
Conditions: curve of first compound; second compound 3.16 µM
Method: Multicellular complex tumor spheroid response to Polymerase (POL) inhibitors (novobiocin, ART-558, RP6685) in combination with a variety of drugs and investigational agents in selected tumor cell lines The POL inhibitors (novobiocin, ART-558, and RP6685) were evaluated both individually and in combination with standard of care and investigational anticancer small molecules within a complex spheroid model of solid tumors. . […]
pIC50: −log10 of the molar value.

| molecule | target-system | pIC50 |
| --- | --- | --- |
| C=CCn1c(=O)c2cnc(Nc3ccc(N4CCN(C)CC4)cc3)nc2n1-c1cccc(C(C)(C)O)n1 + COC1C(OC(N)=O)C(O)C(Oc2ccc3c(O)c(NC(=O)c4ccc(O)c(CC=C(C)C)c4)c(=O)oc3c2C)OC1(C)C | 192522-019-R-J2-PDC complex tumor spheroid viability | 6.13 |
| O=C(Nc1ccc(O)c(NS(=O)(=O)c2ccc(F)cc2)c1)c1ccc(-c2ccccc2)cc1 + Cc1cccc(N(C)C(=O)C2C(O)CCN2c2nc(C)cc(C(F)(F)F)c2C#N)c1 | 192522-019-R-J2-PDC complex tumor spheroid viability | < 5.00 |
| CCc1cc2c(N3CCc4c(cc(Cn5ccnc5)cc4-c4cn(C)nc4C(F)(F)F)C3=O)ccnc2c(OC)n1 + Nc1ccc(C#CCN(C(=O)Cc2ncc(C(F)(F)F)cc2C(F)(F)F)c2ccc(F)cc2)nn1 | 192522-019-R-J2-PDC complex tumor spheroid viability | < 5.00 |
| Nc1ccn(C2OC(CO)C(O)C2(F)F)c(=O)n1 (stereo not given) + COC1C(OC(N)=O)C(O)C(Oc2ccc3c(O)c(NC(=O)c4ccc(O)c(CC=C(C)C)c4)c(=O)oc3c2C)OC1(C)C | 192522-019-R-J2-PDC complex tumor spheroid viability | < 5.00 |
| O=c1[nH]cc(F)c(=O)[nH]1 + Nc1ccc(C#CCN(C(=O)Cc2ncc(C(F)(F)F)cc2C(F)(F)F)c2ccc(F)cc2)nn1 | 192522-019-R-J2-PDC complex tumor spheroid viability | < 5.00 |

----------
// reported viability, T/C per item
Tested on: 192522-019-R-J2-PDC complex tumor spheroid viability
Test: Anticancer human tumor 192522-019-R-J2-PDC cell line growth inhibition [POLQ];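 further: spheroids exposed to drugs for seven days before reading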;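 on viability, T/C: 100% = DMSO vehicle control viability in luminescence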
Conditions: second compound 3.16 µM; first compound 10 µM; stronger effect = lower value

| molecule | viability, T/C / % |
| --- | --- |
| CCCS(=O)(=O)Nc1ccc(F)c(C(=O)c2c[nH]c3ncc(-c4ccc(Cl)cc4)cc23)c1F + Cc1cccc(N(C)C(=O)C2C(O)CCN2c2nc(C)cc(C(F)(F)F)c2C#N)c1 | 73.2 |
| COc1cc2cc(C(=O)CCC(=O)O)sc2cc1OC + COC1C(OC(N)=O)C(O)C(Oc2ccc3c(O)c(NC(=O)c4ccc(O)c(CC=C(C)C)c4)c(=O)oc3c2C)OC1(C)C | 96.9 |
| COc1cccc2c1C(=O)c1c(O)c3c(c(O)c1C2=O)CC(O)(C(=O)CO)CC3OC1CC(N)C(O)C(C)O1 (centres undefined) + Cc1cccc(N(C)C(=O)C2C(O)CCN2c2nc(C)cc(C(F)(F)F)c2C#N)c1 | 60.3 |
| COc1cc2cc(C(=O)CCC(=O)O)sc2cc1OC + Cc1cccc(N(C)C(=O)C2C(O)CCN2c2nc(C)cc(C(F)(F)F)c2C#N)c1 | 105 |

----------
System: 192522-019-R-J2-PDC complex tumor spheroid viability
Assay: Anticancer human tumor 192522-019-R-J2-PDC cell line growth inhibition [POLQ];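 further: spheroids exposed to drugs for seven days before reading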;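 on viability, T/C: 100% = DMSO vehicle control viability in luminescence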
Conditions: second compound 0.1 µM; first compound 0.001 µM; stronger effect = lower value
result-type: viability, T/C (%)

| compound | result-type | measurement |
| --- | --- | --- |
| Cn1ncnc1[C@H]1c2n[nH]c(=O)c3cc(F)cc(c23)N[C@@H]1c1ccc(F)cc1 + Nc1ccc(C#CCN(C(=O)Cc2ncc(C(F)(F)F)cc2C(F)(F)F)c2ccc(F)cc2)nn1 | viability, T/C | 100 |
| Cn1ncnc1[C@H]1c2n[nH]c(=O)c3cc(F)cc(c23)N[C@@H]1c1ccc(F)cc1 + COC1C(OC(N)=O)C(O)C(Oc2ccc3c(O)c(NC(=O)c4ccc(O)c(CC=C(C)C)c4)c(=O)oc3c2C)OC1(C)C | viability, T/C | 100 |
| CC[C@@]1(O)C(=O)OCc2c1cc1n(c2=O)Cc2cc3c(CN(C)C)c(O)ccc3nc2-1 + Cc1cccc(N(C)C(=O)C2C(O)CCN2c2nc(C)cc(C(F)(F)F)c2C#N)c1 | viability, T/C | 98.4 |
